Origin of the recorded values: ChEMBL document CHEMBL3784916

pIC50 listing for selected compounds.
Test system: HeLa
Test: Cytotoxicity against human HeLa cells after 72 hrs by MTT assay
Type: functional, cell-based
Please report pIC50 as the negative decimal logarithm of the molar concentration, giving only the number.

See these solved cases before continuing.
SMILES_STR	TESTED_SYSTEM	pIC50
C[C@H]1[C@H](C)CC[C@@]23CC[C@]4(C)[C@](OC2=O)([C@H](F)C[C@@H]2[C@@]5(C)C[C@@H](O)OC[C@](C)(C=O)[C@@H]5CC[C@]24C)[C@H]13	HeLa	5.13
CC(=O)OC[C@@]1(C)[C@@H]2CC[C@]3(C)[C@H](C[C@@H](F)[C@]45OC(=O)[C@@]6(CC[C@@H](C)[C@H](C)[C@H]64)CC[C@]53C)[C@@]2(C)C[C@@H](OC(C)=O)[C@@H]1OC(C)=O	HeLa	5.35
C[C@H]1[C@H](C)CC[C@@]23CC[C@]4(C)[C@](OC2=O)([C@H](F)C[C@@H]2[C@@]5(C)C(C=O)=C[C@@](C)(COC(=O)c6ccccc6)[C@@H]5CC[C@]24C)[C@H]13	HeLa	6.10
COC(=O)CNC(=O)[C@]12CC[C@@H](C)[C@H](C)[C@H]1C1=CC[C@@H]3[C@@]4(C)C[C@@H](OC(C)=O)[C@H](OC(C)=O)[C@@](C)(COC(C)=O)[C@@H]4CC[C@@]3(C)[C@]1(C)CC2	HeLa	6.01

Ask: Need pIC50 of C[C@H]1[C@H](C)CC[C@@]23CC[C@]4(C)[C@](OC2=O)([C@H](F)C[C@@H]2[C@@]5(C)C(C=O)=C[C@@](C)(COC(=O)n6ccnc6)[C@@H]5CC[C@]24C)[C@H]13 , thanks.
Result: 5.79

Ask: Need pIC50 of CCCC(=O)OC[C@]1(C)C=C(C=O)[C@@]2(C)[C@H]1CC[C@]1(C)[C@@H]2C[C@@H](F)[C@]23OC(=O)[C@@]4(CC[C@@H](C)[C@H](C)[C@H]42)CC[C@]31C , thanks.
Result: 6.02

Ask: Need pIC50 of CC(=O)OC[C@@]1(C)[C@@H]2CC[C@]3(C)[C@H](C[C@@H](F)[C@]45[C@@H]6[C@@H](C)[C@H](C)CC[C@@]6(CC[C@]43C)C(=O)N5C)[C@@]2(C)C[C@@H](OC(C)=O)[C@@H]1OC(C)=O , thanks.
Result: 5.53

Ask: Need pIC50 of COC(=O)[C@H](C)NC(=O)[C@]12CC[C@@H](C)[C@H](C)[C@H]1C1=CC[C@@H]3[C@@]4(C)C[C@@H](OC(C)=O)[C@H](OC(C)=O)[C@@](C)(COC(C)=O)[C@@H]4CC[C@@]3(C)[C@]1(C)CC2 , thanks.
Result: 5.97

Ask: Need pIC50 of CC(=O)OC[C@]1(C)C=C(C=O)[C@@]2(C)[C@H]1CC[C@]1(C)[C@@H]2C[C@@H](F)[C@]23OC(=O)[C@@]4(CC[C@@H](C)[C@H](C)[C@H]42)CC[C@]31C , thanks.
Result: 5.85

Ask: Need pIC50 of Cc1nccn1C(=O)OC[C@]1(C)C=C(C=O)[C@@]2(C)[C@H]1CC[C@]1(C)[C@@H]2C[C@@H](F)[C@]23OC(=O)[C@@]4(CC[C@@H](C)[C@H](C)[C@H]42)CC[C@]31C , thanks.
Result: 5.79

====

IC50 listing for selected molecules.
Tested on: HeLa
Experiment: Cytotoxicity against human HeLa cells after 72 hrs by MTT assay
Type: functional, cell-based
Respond with the bare value in µM.

SMILES_STR	RECORDED_VALUE
C[C@H]1[C@H](C)CC[C@@]23CC[C@]4(C)[C@](OC2=O)([C@H](F)C[C@@H]2[C@@]5(C)C(C=O)=C[C@@](C)(COC(=O)CCC(=O)O)[C@@H]5CC[C@]24C)[C@H]13	3.48
COC(=O)CN1C(=O)[C@]23CC[C@@H](C)[C@H](C)[C@H]2[C@]12[C@H](F)C[C@@H]1[C@@]4(C)C[C@@H](OC(C)=O)[C@H](OC(C)=O)[C@@](C)(COC(C)=O)[C@@H]4CC[C@@]1(C)[C@]2(C)CC3	2.72
CC(=O)OC[C@@]1(C)[C@@H]2CC[C@]3(C)[C@H](CC=C4[C@@H]5[C@@H](C)[C@H](C)CC[C@]5(C(=O)O)CC[C@]43C)[C@@]2(C)C[C@@H](OC(C)=O)[C@@H]1OC(C)=O	6.1
C[C@H]1[C@H](C)CC[C@@]23CC[C@]4(C)[C@](OC2=O)([C@H](F)C[C@@H]2[C@@]5(C)CC(=O)[C@H](O)[C@@](C)(CO)[C@@H]5CC[C@]24C)[C@H]13	24.5

Ask: Need IC50 of CC(=O)OC[C@@]1(C)[C@@H]2CC[C@]3(C)[C@H](CC=C4[C@@H]5[C@@H](C)[C@H](C)CC[C@]5(C(N)=O)CC[C@]43C)[C@@]2(C)C[C@@H](OC(C)=O)[C@@H]1OC(C)=O , thanks.
Result: 1.65
